Source of measurements: the supplement of paper PMC11061612

Tested on: SISO (Cervical Carcinoma)
PROTOCOL SUMMARY: combination Emax (second highest fraction inhibited in the dose matrix, 72 h); higher = more inhibition; extreme values may be limits of the assay
Quick reference for combination Emax among some compounds
Field format: numeric only.

Some solved cases for reference:
* CS(=O)(=O)CCNCc1ccc(-c2ccc3ncnc(Nc4ccc(OCc5cccc(F)c5)c(Cl)c4)c3c2)o1 [Lapatinib] + C[C@@H](Oc1cc(-c2cnn(C3CCNCC3)c2)cnc1N)c1c(Cl)ccc(F)c1Cl [Crizotinib] (first compound max 10 µM, 7x7, partner max 10 µM) | 0.626
* NC1(C(=O)N[C@@H](CCO)c2ccc(Cl)cc2)CCN(c2ncnc3[nH]ccc23)CC1 [Capivasertib] + CCN(CCO)CCCOc1ccc2c(Nc3cc(CC(=O)Nc4cccc(F)c4)[nH]n3)ncnc2c1 [AZD2811] (first compound max 10 µM, 7x7, partner max 1 µM) | 0.477

May I ask what combination Emax has been recorded for COc1nnc2ccc(N3CCC(c4ccc(OCCN5CCN(C)C(=O)[C@H]5C)cc4)CC3)nn12 [AZD5153] + C[C@@H]1COCCN1C2=NC(=NC(=C2)C3(CC3)[S@](=N)(=O)C)C4=C5C=CNC5=NC=C4 [AZD6738] (first compound max 1 µM, 7x7, partner max 10 µM) ?
0.757

For C[C@@H](c1ccc2nccn2c1)n1nnc2ncc(-c3cnn(C)c3)nc21 [Savolitinib] + CC1(C)CCC(CN2CCN(c3ccc(C(=O)NS(=O)(=O)c4ccc(NCC5CCOCC5)c([N+](=O)[O-])c4)c(Oc4cnc5[nH]ccc5c4)c3)CC2)=C(c2ccc(Cl)cc2)C1 [Venetoclax] (first compound max 1 µM, 7x7, partner max 1 µM) then?
0.0509

For Cc1cc2ncnn2cc1Nc1ncc2c(n1)n(C1CCOCC1)c(=O)n2C [AZD7648] + C=CCn1c(=O)c2cnc(Nc3ccc(N4CCN(C)CC4)cc3)nc2n1-c1cccc(C(C)(C)O)n1 [AZD1775] (first compound max 10 µM, partner max 1 µM) then?
0.577

For C=CCn1c(=O)c2cnc(Nc3ccc(N4CCN(C)CC4)cc3)nc2n1-c1cccc(C(C)(C)O)n1 [AZD1775] + C1CN(CCC1(C(=O)N[C@@H](CCO)C2=CC=C(C=C2)Cl)N)C3=NC=NC4=C3C=CN4 [Capivasertib] (first compound max 3 µM, partner max 3 µM) then?
0.731

For CN(CCO)CC[C@H](CSc1ccccc1)Nc1ccc(S(=O)(=O)NC(=O)c2ccc(N3CCC([C@@H](O)c4ccccc4-c4ccc(Cl)cc4)CC3)cc2)cc1S(=O)(=O)C(F)(F)F [AZD4320] + CN(C)CCCOc1ccc(-c2ccc3ncc4c(c3c2)n(C2CCOCC2)c(=O)n4C)cn1 [AZD0156] (first compound max 1 µM, 7x7, partner max 1 µM) then?
0.0433

For Cc1c2c(nn1C)CSCc1cc(n(C)n1)CSc1cc(c3ccccc3c1)OCCCc1c(C(=O)O)n(C)c3c-2c(Cl)ccc13 [AZD5991] + CN(C)CCCOc1ccc(-c2ccc3ncc4c(c3c2)n(C2CCOCC2)c(=O)n4C)cn1 [AZD0156] (first compound max 1 µM, 7x7, partner max 1 µM) then?
0.201

---

Quick reference for Bliss excess among some molecules
Tested on: CAPAN-2 (Pancreatic Carcinoma)
PROTOCOL SUMMARY: Bliss excess, mean over the matrix (fraction); higher = more synergy
Field format: numeric only.

Some solved cases for reference:
• COc1cccc(OCCCN)c1-c1cc(Nc2cnc(C#N)cn2)n[nH]1 [Prexasertib] + CN(C)CCCOc1ccc(-c2ccc3ncc4c(c3c2)n(C2CCOCC2)c(=O)n4C)cn1 [AZD0156] (first compound max 1 µM, 7x7, partner max 1 µM) = 0.0147
• C[C@@H](Oc1cc(-c2cnn(C3CCNCC3)c2)cnc1N)c1c(Cl)ccc(F)c1Cl [Crizotinib] + CC1=C(C(=CC=C1)Cl)NC(=O)C2=CN=C(S2)NC3=CC(=NC(=N3)C)N4CCN(CC4)CCO [Dasatinib] (first compound max 10 µM, 7x7, partner max 2 µM) = 0.0443
• CC(=O)Nc1cccc(-n2c(=O)n(C3CC3)c(=O)c3c(Nc4ccc(I)cc4F)n(C)c(=O)c(C)c32)c1 [Trametinib] + Cc1nc(-c2cn3c(n2)-c2ccc(-c4cnn(C(C)(C)C(N)=O)c4)cc2OCC3)n(C(C)C)n1 [Taselisib] (first compound max 1 µM, 7x7, partner max 10 µM) = 0.117

May I ask what Bliss excess has been recorded for C[C@@H](Nc1cc(F)cc(F)c1)c1cc(C(=O)N(C)C)cc2c(=O)cc(N3CCOCC3)oc12 [AZD8186] + CC(=O)c1c(C)c2cnc(Nc3ccc(N4CCNCC4)cn3)nc2n(C2CCCC2)c1=O [Palbociclib] (first compound max 10 µM, 7x7, partner max 10 µM) ?
0.0182

For CN(CCO)CC[C@H](CSc1ccccc1)Nc1ccc(S(=O)(=O)NC(=O)c2ccc(N3CCC([C@@H](O)c4ccccc4-c4ccc(Cl)cc4)CC3)cc2)cc1S(=O)(=O)C(F)(F)F [AZD4320] + CC(=O)O[C@H]1C(=O)[C@@]2(C)[C@H]([C@H](OC(=O)c3ccccc3)[C@]3(O)C[C@H](OC(=O)[C@H](O)[C@@H](NC(=O)c4ccccc4)c4ccccc4)C(C)=C1C3(C)C)[C@]1(OC(C)=O)CO[C@@H]1C[C@@H]2O [Paclitaxel] (first compound max 1 µM, 7x7, partner max 3 µM) then?
0.0494

For O=C(c1cc(Cc2n[nH]c(=O)c3ccccc23)ccc1F)N1CCN(C(=O)C2CC2)CC1 [Olaparib] + CN(CC[C@H](CSC1=CC=CC=C1)NC2=C(C=C(C=C2)S(=O)(=O)NC(=O)C3=CC=C(C=C3)N4CCC(CC4)[C@H](C5=CC=CC=C5C6=CC=C(C=C6)Cl)O)S(=O)(=O)C(F)(F)F)CCO [AZD4320] (first compound max 10 µM, 7x7, partner max 1 µM) then?
-0.0461

---

System: U-698-M
PROTOCOL SUMMARY: combination Emax (second highest fraction inhibited in the dose matrix, 72 h); higher = more inhibition
APPLIED CONDITIONS: first compound max 10 µM, partner max 10 µM, B-Cell Non-Hodgkin's Lymphoma, 7x7
Would you mind labelling by combination Emax? At or over 0.8 is True, under is False.

- NC1(C(=O)N[C@@H](CCO)c2ccc(Cl)cc2)CCN(c2ncnc3[nH]ccc23)CC1 [Capivasertib] + Cn1cnc2c(F)c(Nc3ccc(Br)cc3Cl)c(C(=O)NOCCO)cc21 [Selumetinib]: False
- CS(=O)(=O)CCNCc1ccc(-c2ccc3ncnc(Nc4ccc(OCc5cccc(F)c5)c(Cl)c4)c3c2)o1 [Lapatinib] + NC1(c2ccc(-c3nc4ccn5c(=O)[nH]nc5c4cc3-c3ccccc3)cc2)CCC1: True
- C[C@@H]1COCCN1c1cc(C2([S@](C)(=N)=O)CC2)nc(-c2ccnc3[nH]ccc23)n1 [AZD6738] + C1CC(C1)(C(=O)[O-])C(=O)[O-].N.N.[Pt+2] [Carboplatin]: True

Dear colleague, could you confirm whether Cn1cnc2c(F)c(Nc3ccc(Br)cc3Cl)c(C(=O)NOCCO)cc21 [Selumetinib] + C[C@@H]1COCCN1C2=NC(=NC(=C2)C3(CC3)[S@](=N)(=O)C)C4=C5C=CNC5=NC=C4 has combination Emax at or above 0.8?
False

For CC(=O)c1c(C)c2cnc(Nc3ccc(N4CCNCC4)cn3)nc2n(C2CCCC2)c1=O [Palbociclib] + Cn1cnc2c(F)c(Nc3ccc(Br)cc3Cl)c(C(=O)NOCCO)cc21 then?
False

For C[C@@H](Nc1cc(F)cc(F)c1)c1cc(C(=O)N(C)C)cc2c(=O)cc(N3CCOCC3)oc12 [AZD8186] + C1CN(CCC1(C(=O)N[C@@H](CCO)C2=CC=C(C=C2)Cl)N)C3=NC=NC4=C3C=CN4 then?
False

For C[C@@H]1COCCN1c1cc(C2([S@](C)(=N)=O)CC2)nc(-c2ccnc3[nH]ccc23)n1 [AZD6738] + O=C(c1cc(Cc2n[nH]c(=O)c3ccccc23)ccc1F)N1CCN(C(=O)C2CC2)CC1 [Olaparib] then?
True

For NC1(C(=O)N[C@@H](CCO)c2ccc(Cl)cc2)CCN(c2ncnc3[nH]ccc23)CC1 [Capivasertib] + CC(=O)c1c(C)c2cnc(Nc3ccc(N4CCNCC4)cn3)nc2n(C2CCCC2)c1=O [Palbociclib] then?
False

For Cc1cc2ncnn2cc1Nc1ncc2c(n1)n(C1CCOCC1)c(=O)n2C [AZD7648] + C[C@@H]1COCCN1C2=NC(=NC(=C2)C3(CC3)[S@](=N)(=O)C)C4=C5C=CNC5=NC=C4 then?
True

---

Tested on: NCI-H64 (Small Cell Lung Carcinoma)
PROTOCOL SUMMARY: Bliss excess, mean over the matrix (fraction); higher = more synergy
REPORTED PROPERTY: Bliss excess

- Cc1cc2ncnn2cc1Nc1ncc2c(n1)n(C1CCOCC1)c(=O)n2C [AZD7648] + CN(C)CCCOc1ccc(-c2ccc3ncc4c(c3c2)n(C2CCOCC2)c(=O)n4C)cn1 [AZD0156] (first compound max 10 µM, 7x7, partner max 1 µM): -0.0367
- COc1cc2c(cc1OCCCCCOc1cc3c(cc1OC)C(=O)N1C=C(C)C[C@H]1C=N3)N=C[C@@H]1CC(C)=CN1C2=O [SG3199] + O=C(c1cc(Cc2n[nH]c(=O)c3ccccc23)ccc1F)N1CCN(C(=O)C2CC2)CC1 [Olaparib] (first compound max 0.001 µM, 7x7, partner max 10 µM): -0.0539
- COc1cccc(OCCCN)c1-c1cc(Nc2cnc(C#N)cn2)n[nH]1 [Prexasertib] + O=C(c1cc(Cc2n[nH]c(=O)c3ccccc23)ccc1F)N1CCN(C(=O)C2CC2)CC1 [Olaparib] (first compound max 1 µM, 7x7, partner max 10 µM): -0.0438

Let us move to another entry and its Bliss excess.
May I ask what Bliss excess has been recorded for CCc1c2c(nc3ccc(O)cc13)-c1cc3c(c(=O)n1C2)COC(=O)[C@]3(O)CC [SN-38] + CN(C)CCCOc1ccc(-c2ccc3ncc4c(c3c2)n(C2CCOCC2)c(=O)n4C)cn1 [AZD0156] (first compound max 0.3 µM, 7x7, partner max 1 µM) ?
-0.0365
